# Experimental System: HLA-A*30:01 (Homo sapiens, UniProt P04439, D140H/D185E/E176W/F33S/G80R/H175R/K168Q/R138E/R41S)
# Format: binding
# Measurement Conditions: percent relative the binding of positive control peptide […]; duplicated experiments; positive binder >40%
Listed here are substances together with their documented Bind A*30:01.
Give the number; % is assumed, so skip it.

[
  {
    "Substance": "WGAQLNAMK",
    "Display Unit": "%",
    "Reported": 0
  },
  {
    "Substance": "GGHNAVFNF",
    "Display Unit": "%",
    "Reported": 0
  },
  {
    "Substance": "VYCGNGTPN",
    "Display Unit": "%",
    "Reported": 8
  }
]

Q) Look up Bind A*30:01 for this substance: LLDGLRAQD
A) 8

Q) Record request: Bind A*30:01 value, item QWLSANRAV
A) 39

Q) Tell me the measured Bind A*30:01 of NNSPAVYLL , please.
A) 0

Q) Quick check: Bind A*30:01 of AVYLLDGLR ?
A) 1

Q) Which Bind A*30:01 value belongs to KGDLQSSLG ?
A) 20

Q) May I ask what Bind A*30:01 has been recorded for THSWEYWGA ?
A) 0

Q) # Bind A*30:01 lookup, item RSSNLKFQD
A) 0

Q) Quick one: Bind A*30:01 for SPAVYLLDG ?
A) 0

Q) Return reported Bind A*30:01; argument: AAGGHNAVF
A) 15

Q) Fill in: Bind A*30:01 of LTSELPQW L is ___
A) 0

Q) Dear colleague, I am looking for the recorded Bind A*30:01 of the following substance: WVYCGNGTP
A) 0

Q) Please give the measured Bind A*30:01 for this substance: MGDAGGYKA
A) 0

Q) Entry under review: GKAGCQTYK . Reported Bind A*30:01?
A) 34

Q) // returns reported Bind A*30:01 for input NGW DINTPA
A) 8

Q) // lookup Bind A*30:01 for AGCQTYKW E
A) 3

Q) // lookup Bind A*30:01 for AMILAAYHP
A) 0

Q) For the substance shown here, IYAGSLSAL , give the reported Bind A*30:01.
A) 0

Q) Fill in: Bind A*30:01 of GQSSFYSDW is ___
A) 0

Q) Data request, read-out Bind A*30:01, for QT YKWETFL
A) 0

Q) Value lookup for Bind A*30:01; key = SPACGKAGC
A) 0

====

# Experimental System: HLA-A*30:01 (Homo sapiens, UniProt P04439, D140H/D185E/E176W/F33S/G80R/H175R/K168Q/R138E/R41S)
# Format: binding
# Measurement Conditions: percent relative the binding of positive control peptide […]; duplicated experiments; positive binder >40%
Record Satisfied whenever Bind A*30:01 is at 10% or higher; record Not satisfied when lower.

Observe how each entry below is paired with its result.
[
  {
    "Substance": "IVMPVGGQS",
    "Qualitative Label": "Not satisfied"
  },
  {
    "Substance": "GPSLIGLAM",
    "Qualitative Label": "Not satisfied"
  },
  {
    "Substance": "NFVRSSNLK",
    "Qualitative Label": "Satisfied"
  },
  {
    "Substance": "SALLDPSQG",
    "Qualitative Label": "Satisfied"
  },
  {
    "Substance": "LSMAGSSAM",
    "Qualitative Label": "Not satisfied"
  },
  {
    "Substance": "RLWVYCGNG",
    "Qualitative Label": "Not satisfied"
  }
]

Q) Hi team, for VYLLDGLRA , is the recorded Bind A*30:01 at or above 10%?
A) Not satisfied

Q) For this substance, is measured Bind A*30:01 10% or higher? DGLRAQDDY
A) Not satisfied

Q) Reported Bind A*30:01 reaches at least 10% for PQWLSANRA ?
A) Satisfied

Q) Say whether AVFNFPPNG shows Bind A*30:01 of 10% or more.
A) Satisfied

Q) Form field: Bind A*30:01 at least 10%? Entry: SFYSDW YSP
A) Not satisfied

Q) Form field: Bind A*30:01 at least 10%? Entry: ILAAYHPQQ
A) Not satisfied

Q) Can RAVKPT GSA be said to have Bind A*30:01 at or above 10%?
A) Not satisfied
